System: [Candida] auris
Test: Antifungal activity against Candida auris COLO 01 assessed as inhibition of fungal growth incubated for 24 to 48 hrs by CLSI protocol based broth microdilution method
Assay type: functional
Settings: Candidozyma auris, time 24-48 hrs
Measured MIC by item
TEST READOUT: MIC

C/C(=N\Nc1nc(-c2ccc(Br)cc2)cs1)C(=O)O    23 µM
C/C(=N\Nc1nc(-c2ccccc2)cs1)C(=O)O    29.9 µM
CCOC(=O)/C(C)=N/Nc1nc(-c2ccccc2)cs1    > 125 µM
C/C(CCC(=O)O)=N\Nc1nc(-c2ccc(Br)cc2)cs1    0.3 µM
CCOC(=O)Cc1csc(N/N=C(\C)CCC(=O)O)n1    1.6 µM
CCOC(=O)Cc1csc(NN=C(C)C(=O)OCC)n1    104 µM
CCOC(=O)/C(C)=N/Nc1nc(-c2ccc(C#N)cc2)cs1    24.8 µM
CCOC(=O)/C(C)=N/Nc1nc(-c2ccc(OC)cc2)cs1    > 125 µM
CCOC(=O)Cc1csc(NN=C(C)CCO)n1    115 µM
CCOC(=O)c1sc(N/N=C\C2CCCCC2)nc1C    > 125 µM
C/C(=N\Nc1nc(-c2ccc(C#N)cc2)cs1)C(=O)O    13.7 µM
COc1ccc(-c2csc(N/N=C(\C)CCC(=O)O)n2)cc1    1.5 µM
CCOC(=O)Cc1csc(N/N=C\C2CCCCC2)n1    52.9 µM
CCOC(=O)c1sc(NN=C2CCOCC2)nc1C    > 125 µM
CCOC(=O)/C(C)=N\Nc1nc(C)c(C(=O)OCC)s1    > 125 µM
CC[C@H](C)C[C@H](C)CCCCCCCCC(=O)N[C@H]1C[C@@H](O)[C@@H](NCCN)NC(=O)[C@@H]2[C@@H](O)CCN2C(=O)[C@H]([C@H](O)CCN)NC(=O)[C@H]([C@H](O)[C@@H](O)c2ccc(O)cc2)NC(=O)[C@@H]2C[C@@H](O)CN2C(=O)[C@H]([C@@H](C)O)NC1=O [CASPOFUNGIN]    0.1 µM
C/C(CCC(=O)O)=N\Nc1nc(-c2ccc(Cl)cc2)cs1    0.7 µM
C/C(CCC(=O)O)=N\Nc1nc(-c2ccc(F)cc2)cs1    0.8 µM
CCOC(=O)Cc1csc(NN=C(C)C(=O)O)n1    57.6 µM
C/C(CCC(=O)O)=N\Nc1nc(-c2ccc(C)cc2)cs1    3.2 µM
C/C(=N\Nc1nc(-c2ccc(F)cc2)cs1)C(=O)O    7 µM
C/C(=N\Nc1nc(-c2ccc(C)cc2)cs1)C(=O)O    14.2 µM
COc1ccc(-c2csc(N/N=C(\C)C(=O)O)n2)cc1    13.4 µM
CCOC(=O)C(C)=NNc1nc(-c2ccc(F)cc2)cs1    50.8 µM

====

Tested on: [Candida] auris
Assay: Antifungal activity against Candida auris COLO 01 assessed as inhibition of fungal growth incubated for 24 to 48 hrs by CLSI protocol based broth microdilution method
Type: functional
Conditions: Candidozyma auris, time 24-48 hrs
Measured MIC by item
TEST READOUT: MIC (µM)

C[C@@H]1[C@H](O)[C@@H](C)/C=C/C=C/C=C/C=C/C=C/C=C/C=C/[C@H](O[C@@H]2O[C@H](C)[C@@H](O)[C@H](N)[C@@H]2O)C[C@@H]2O[C@](O)(C[C@@H](O)C[C@@H](O)[C@H](O)CC[C@@H](O)C[C@@H](O)CC(=O)O[C@H]1C)C[C@H](O)[C@H]2C(=O)O    4.3
CCC(C)n1ncn(-c2ccc(N3CCN(c4ccc(OCC5COC(Cn6cncn6)(c6ccc(Cl)cc6Cl)O5)cc4)CC3)cc2)c1=O (configuration not stated)    0.4
